- Tested on: biotinyl-Ile-oxazolone
- protocol text: self-aminoacylation, catalytic enhancement (BIO) (fold over background); higher = more active; k-Seq, kA / k0A0; sequences stand for … in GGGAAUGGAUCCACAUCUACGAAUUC…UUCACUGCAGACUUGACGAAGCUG
Variants at the floor of the assay were thinned out.
Threshold rule: self-aminoacylation greater than or equal to 2 is label 1; below that, label 0.

>>> df
                               item_sequence            study_target      cat
 0  AUUACCUUGGUCAUCGCGUGA [Fam2.1 aminoacylation ribozyme variant]  biotinyl-Ile-oxazolone  label 1
 1  CAGUUUGGUAAUAGUCGCAAG [Fam3.1 aminoacylation ribozyme variant]  biotinyl-Ile-oxazolone  label 0
 2  AUUACCCUGGUCAUCAAGGGA [Fam2.1 aminoacylation ribozyme variant]  biotinyl-Ile-oxazolone  label 0
 3  AUCUCCCUGGUCAUCGAGUGA [Fam2.1 aminoacylation ribozyme variant]  biotinyl-Ile-oxazolone  label 1
 4  AAGUUUGCUACUAGUCGGAAG [Fam3.1 aminoacylation ribozyme variant]  biotinyl-Ile-oxazolone  label 0
 5  AAGUUCGCCAAUAGUCGCAAG [Fam3.1 aminoacylation ribozyme variant]  biotinyl-Ile-oxazolone  label 1
 6  AUUCACCUAGGUCAUGGGAUG [Fam2.2 aminoacylation ribozyme variant]  biotinyl-Ile-oxazolone  label 0
 7  CCACACUUCAAGCCAUCGGUA [Fam1B.1 aminoacylation ribozyme variant]  biotinyl-Ile-oxazolone  label 0
 8  CCACACGUCAAGCAAUCGGUG [Fam1B.1 aminoacylation ribozyme variant]  biotinyl-Ile-oxazolone  label 0
 9  UUUACCCCGGUCAUCGAGUGA [Fam2.1 aminoacylation ribozyme variant]  biotinyl-Ile-oxazolone  label 1
10  CCACGCUUCAAGCAAUCGGUU [Fam1B.1 aminoacylation ribozyme variant]  biotinyl-Ile-oxazolone  label 0
11  AAGUUUGCUAAUCGUCGGAAG [Fam3.1 aminoacylation ribozyme variant]  biotinyl-Ile-oxazolone  label 0
12  AUUACCCUGAUAAUCGAGUGA [Fam2.1 aminoacylation ribozyme variant]  biotinyl-Ile-oxazolone  label 1
13  AUUAUCCUGGUCAUCGAGCGA [Fam2.1 aminoacylation ribozyme variant]  biotinyl-Ile-oxazolone  label 0
14  AAGUUGGCUAAUAGUCGCAAU [Fam3.1 aminoacylation ribozyme variant]  biotinyl-Ile-oxazolone  label 1
15  CUACUUCAAAAAAUCGGUCUU [Fam1A.1 aminoacylation ribozyme variant]  biotinyl-Ile-oxazolone  label 0
16  CUACUUCAAACAACCGGGCUG [Fam1A.1 aminoacylation ribozyme variant]  biotinyl-Ile-oxazolone  label 0

----------
- Test system: biotinyl-Ile-oxazolone
- protocol text: self-aminoacylation, catalytic enhancement (BIO) (fold over background); higher = more active; k-Seq, kA / k0A0; sequences stand for … in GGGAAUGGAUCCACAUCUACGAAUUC…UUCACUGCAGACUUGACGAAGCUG
Variants at the floor of the assay were thinned out.
Listed next: entries and their corresponding self-aminoacylation.
quantity measured: self-aminoacylation

In [3]: df
Out[3]:
                               item_sequence  result
 0  CUACUUCUAACAAGCGGUCUG [Fam1A.1 aminoacylation ribozyme variant]   0.801
 1  CCUCACCUCAAGCAAUCGGUC [Fam1B.1 aminoacylation ribozyme variant]    1.02
 2  AUGUUUGCUAACAGUCGCAAG [Fam3.1 aminoacylation ribozyme variant]    1.59
 3  UUUACCCAGGUCAUCGAGUGA [Fam2.1 aminoacylation ribozyme variant]    3.49
 4  GAGUUUGCGAAUAGUCGCAAG [Fam3.1 aminoacylation ribozyme variant]    1.68
 5  AUUACCCUAGUCUUCGAGUGA [Fam2.1 aminoacylation ribozyme variant]    3.09
 6  CUACUUCAAACAUUGGGUCUG [Fam1A.1 aminoacylation ribozyme variant]   0.914
 7  AAGUGUGCUAAUAGUAGCAAG [Fam3.1 aminoacylation ribozyme variant]    1.27
 8  AUUCACCUAGGGCAUCAGGUG [Fam2.2 aminoacylation ribozyme variant]    1.35
 9  CUACCUCAAACAAUCGGACUG [Fam1A.1 aminoacylation ribozyme variant]   0.872
10  AUUACCCUGGUCAUGGAGUGA [Fam2.1 aminoacylation ribozyme variant]    3.07
11  AUCCACCUAGGUCAACGGGUG [Fam2.2 aminoacylation ribozyme variant]     2.4
12  CUAAUUCAAACCAUCGGUCUG [Fam1A.1 aminoacylation ribozyme variant]   0.967
13  CCACACUUCAAGCAAUCUGUC [Fam1B.1 aminoacylation ribozyme variant]   0.368
14  CCACACUUAAAGCCAUCGGUC [Fam1B.1 aminoacylation ribozyme variant]   0.992
15  AUUACACUGGUCAGCGAGUGA [Fam2.1 aminoacylation ribozyme variant]     3.4
16  GAGUUUGCUUAUAGUCGCAAG [Fam3.1 aminoacylation ribozyme variant]    1.65
17  AUUACCGUGGUCAUCGACUGA [Fam2.1 aminoacylation ribozyme variant]    1.06
18  CCACAGUUCAAGCAAUCGGUG [Fam1B.1 aminoacylation ribozyme variant]    3.29
19  CCACACUUGAAGCAAUAGGUC [Fam1B.1 aminoacylation ribozyme variant]   0.563
20  CUACUUCCAACAAUCGGUCAG [Fam1A.1 aminoacylation ribozyme variant]   0.795
21  AUUCACCUGGGUCAUCGGUUG [Fam2.2 aminoacylation ribozyme variant]    1.25
22  AUCCAUCUAGGUCAUCGGGUG [Fam2.2 aminoacylation ribozyme variant]    4.35
23  ACUACCCUGGUCAGCGAGUGA [Fam2.1 aminoacylation ribozyme variant]    4.51
24  ACACACUUCAAGCAAUCGGCC [Fam1B.1 aminoacylation ribozyme variant]     2.7
25  CGACUUCAAAGAAUCGGUCUG [Fam1A.1 aminoacylation ribozyme variant]    1.31
26  AUUACCUUGGUCAGCGAGUGA [Fam2.1 aminoacylation ribozyme variant]    3.26
27  AUUACCCUGGUAAUAGAGUGA [Fam2.1 aminoacylation ribozyme variant]    6.19
28  AUUCCCCUGGUCAUCGGGUGA [Fam2.1 aminoacylation ribozyme variant]    7.79
29  AUUACCGGGGUCAUCGAGUGA [Fam2.1 aminoacylation ribozyme variant]    3.48
30  AUUACGCUGGUCAUCGAGUCA [Fam2.1 aminoacylation ribozyme variant]    1.15
31  AAGCUUGCUAAUAGUCGCAAU [Fam3.1 aminoacylation ribozyme variant]    2.93

----------
Listed next: entries and their corresponding self-aminoacylation.
- System: biotinyl-Met-oxazolone
- protocol text: self-aminoacylation, catalytic enhancement (BMO) (fold over background); higher = more active; k-Seq, kA / k0A0; sequences stand for … in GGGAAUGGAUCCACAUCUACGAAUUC…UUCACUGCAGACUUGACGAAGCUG
Fewer inactive variants are shown than the library holds.
quantity measured: self-aminoacylation

In [3]: df
Out[3]:
                              item_sequence    quantity_measured  result
0  AAGUUUGCUAAGAGUCGAAAG [Fam3.1 aminoacylation ribozyme variant]  self-aminoacylation   0.817
1  AUUGCCCUGGUAAUCGAGUGA [Fam2.1 aminoacylation ribozyme variant]  self-aminoacylation    8.63
2  AUUGACCUAUGUCAUCGGGUG [Fam2.2 aminoacylation ribozyme variant]  self-aminoacylation    5.68
3  AUUACCCUGGUCAUCGACUGC [Fam2.1 aminoacylation ribozyme variant]  self-aminoacylation   0.555
4  CUACUUCAAUCAAUCGGUGUG [Fam1A.1 aminoacylation ribozyme variant]  self-aminoacylation    1.19
5  AUUAUCCUGGUCAUCCAGUGA [Fam2.1 aminoacylation ribozyme variant]  self-aminoacylation    3.69

----------
Listed next: entries and their corresponding self-aminoacylation.
- Tested on: biotinyl-Phe-oxazolone
- protocol text: self-aminoacylation, catalytic enhancement (BFO) (fold over background); higher = more active; k-Seq, kA / k0A0; sequences stand for … in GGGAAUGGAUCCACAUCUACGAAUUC…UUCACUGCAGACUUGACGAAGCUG
This sample holds only a part of the variants without activity.
quantity measured: self-aminoacylation

>>> df
                               item_sequence            study_target    quantity_measured  result
 0  CCACACUUCAAGCAAUCGUUC [Fam1B.1 aminoacylation ribozyme variant]  biotinyl-Phe-oxazolone  self-aminoacylation    1.31
 1  AUCACCCUGAUCAUCGAGUGA [Fam2.1 aminoacylation ribozyme variant]  biotinyl-Phe-oxazolone  self-aminoacylation    62.3
 2  GUUACCCUGGACAUCGAGUGA [Fam2.1 aminoacylation ribozyme variant]  biotinyl-Phe-oxazolone  self-aminoacylation      48
 3  CUACUACAAACAAGCGGUCUG [Fam1A.1 aminoacylation ribozyme variant]  biotinyl-Phe-oxazolone  self-aminoacylation   0.606
 4  AAGUAUGCUAUUAGUCGCAAG [Fam3.1 aminoacylation ribozyme variant]  biotinyl-Phe-oxazolone  self-aminoacylation    1.49
 5  AUUCCCCUAGGUCAUUGGGUG [Fam2.2 aminoacylation ribozyme variant]  biotinyl-Phe-oxazolone  self-aminoacylation    92.5
 6  CUACUUCAAAGAAUAGGUCUG [Fam1A.1 aminoacylation ribozyme variant]  biotinyl-Phe-oxazolone  self-aminoacylation   0.944
 7  CUACUUCGAACAAUCGGGCUG [Fam1A.1 aminoacylation ribozyme variant]  biotinyl-Phe-oxazolone  self-aminoacylation   0.645
 8  CCACCGUUCAAGCAAUCGGUC [Fam1B.1 aminoacylation ribozyme variant]  biotinyl-Phe-oxazolone  self-aminoacylation    1.27
 9  AUUACCCUGGUAAUCGAGUGG [Fam2.1 aminoacylation ribozyme variant]  biotinyl-Phe-oxazolone  self-aminoacylation    2.83
10  AUUCACCUAGGUUAUCGGGUA [Fam2.2 aminoacylation ribozyme variant]  biotinyl-Phe-oxazolone  self-aminoacylation    13.3
